- measurement_notes: Phase I food-effect crossover pharmacokinetic study, single 400 mg oral dose of T2000 (DMMDPB), fasting vs fed
- applied_conditions: male, human, plasma, po, 400 mg, T1/2, Fed; single 400 mg oral dose of DMMDPB; arithmetic mean; n=18 for DMMDPB, n=20 for MMMDPB
- Description: This was a single center, randomized, single dose, open-label, 2-way, food-effect crossover study to compare the rate and extent of absorption of T2000, administered as 4×100 mg capsules (for a total dose of 400 mg), under fasting and fed conditions. Subjects were confined to a clinical research facility from at least 11 hours prior to drug administration until after the 72.0-hour post-dose blood draw, in each period. Single oral doses were separated by a washout period of at least 21 days. […]
Readings of half-life for the listed compounds
Give just the numeric value; h need not be written.

Examples with answers:
1. COCN1C(=O)N(COC)C(=O)C(c2ccccc2)(c2ccccc2)C1=O | 18.5
2. COCN1C(=O)NC(=O)C(c2ccccc2)(c2ccccc2)C1=O | 16.2

Next compound, please.
Prompt: State the recorded half-life for this entry: O=C1NC(=O)C(c2ccccc2)(c2ccccc2)C(=O)N1
Response: 38.5

---

- measurement_notes: Phase I food-effect crossover pharmacokinetic study, single 400 mg oral dose of T2000 (DMMDPB), fasting vs fed
- applied_conditions: male, human, plasma, po, 400 mg, AUC0-t, Fed (high-fat breakfast 30 min before dose); plasma analyte after single 400 mg oral dose of DMMDPB, n=23; least-squares geometric mean
Readings of AUC(0-t) for the listed molecules
Give just the numeric value; ng·h/mL need not be written.

Examples with answers:
1) O=C1NC(=O)C(c2ccccc2)(c2ccccc2)C(=O)N1 [DPB, 5,5-diphenyl barbituric acid] | 219000
2) COCN1C(=O)NC(=O)C(c2ccccc2)(c2ccccc2)C1=O [MMMDPB] | 99500

Next molecule, please.
Prompt: State the recorded AUC(0-t) for this entry: COCN1C(=O)N(COC)C(=O)C(c2ccccc2)(c2ccccc2)C1=O [DMMDPB]
Response: 8710

---

- measurement_notes: Phase I food-effect crossover pharmacokinetic study, single 400 mg oral dose of T2000 (DMMDPB), fasting vs fed
- applied_conditions: male, human, plasma, po, 400 mg, Tmax, Fed; single 400 mg oral dose of DMMDPB, n=23; arithmetic mean
measured_quantity: Tmax
Note: a bare number is incomplete; add the unit.

1. O=C1NC(=O)C(c2ccccc2)(c2ccccc2)C(=O)N1 | 48.3 h
2. COCN1C(=O)NC(=O)C(c2ccccc2)(c2ccccc2)C1=O | 8.83 h

Next compound, please.
Prompt: State the recorded Tmax for this entry: COCN1C(=O)N(COC)C(=O)C(c2ccccc2)(c2ccccc2)C1=O
Response: 4.88 h

---

- measurement_notes: Phase I food-effect crossover pharmacokinetic study, single 400 mg oral dose of T2000 (DMMDPB), fasting vs fed
- applied_conditions: male, human, plasma, po, 400 mg, AUC0-∞, Fasting; single 400 mg oral dose of DMMDPB; least-squares geometric mean; n=18 for DMMDPB, n=20 for MMMDPB
Readings of AUC(0-inf) for the listed compounds
Give just the numeric value; ng·h/mL need not be written.

1) O=C1NC(=O)C(c2ccccc2)(c2ccccc2)C(=O)N1 [DPB, 5,5-diphenyl barbituric acid] | 185000

Prompt: State the recorded AUC(0-inf) for this entry: COCN1C(=O)N(COC)C(=O)C(c2ccccc2)(c2ccccc2)C1=O [DMMDPB]
Response: 5320

Prompt: State the recorded AUC(0-inf) for this entry: COCN1C(=O)NC(=O)C(c2ccccc2)(c2ccccc2)C1=O [MMMDPB]
Response: 54000

---

- measurement_notes: Phase I food-effect crossover pharmacokinetic study, single 400 mg oral dose of T2000 (DMMDPB), fasting vs fed
- applied_conditions: male, human, plasma, po, 400 mg, AUC0-t, Fasting; plasma analyte after single 400 mg oral dose of DMMDPB, healthy subjects, n=23; least-squares geometric mean
Readings of AUC(0-t) for the listed molecules
Give just the numeric value; ng·h/mL need not be written.

Examples with answers:
1) COCN1C(=O)NC(=O)C(c2ccccc2)(c2ccccc2)C1=O | 36400
2) O=C1NC(=O)C(c2ccccc2)(c2ccccc2)C(=O)N1 | 143000

Next molecule, please.
Prompt: State the recorded AUC(0-t) for this entry: COCN1C(=O)N(COC)C(=O)C(c2ccccc2)(c2ccccc2)C1=O
Response: 3100

---

Readings of Cmax for the listed compounds
- measurement_notes: Phase I food-effect crossover pharmacokinetic study, single 400 mg oral dose of T2000 (DMMDPB), fasting vs fed
- applied_conditions: male, human, plasma, po, 400 mg, Cmax, Fed; single 400 mg oral dose of DMMDPB, n=23
Give just the numeric value; ng/mL need not be written.

1. O=C1NC(=O)C(c2ccccc2)(c2ccccc2)C(=O)N1 | 2790
2. COCN1C(=O)N(COC)C(=O)C(c2ccccc2)(c2ccccc2)C1=O | 887

Prompt: State the recorded Cmax for this entry: COCN1C(=O)NC(=O)C(c2ccccc2)(c2ccccc2)C1=O
Response: 2820

---

- measurement_notes: Phase I food-effect crossover pharmacokinetic study, single 400 mg oral dose of T2000 (DMMDPB), fasting vs fed
- applied_conditions: male, human, plasma, po, 400 mg, Cmax, Fasting; single 400 mg oral dose of DMMDPB, n=23
- Protocol: This was a single center, randomized, single dose, open-label, 2-way, food-effect crossover study to compare the rate and extent of absorption of T2000, administered as 4×100 mg capsules (for a total dose of 400 mg), under fasting and fed conditions. Subjects were confined to a clinical research facility from at least 11 hours prior to drug administration until after the 72.0-hour post-dose blood draw, in each period. Single oral doses were separated by a washout period of at least 21 days. […]
measured_quantity: Cmax (ng/mL)
Give just the numeric value; ng/mL need not be written.

1) COCN1C(=O)NC(=O)C(c2ccccc2)(c2ccccc2)C1=O [MMMDPB] | 898

Prompt: State the recorded Cmax for this entry: O=C1NC(=O)C(c2ccccc2)(c2ccccc2)C(=O)N1 [DPB, 5,5-diphenyl barbituric acid]
Response: 1750

Prompt: State the recorded Cmax for this entry: COCN1C(=O)N(COC)C(=O)C(c2ccccc2)(c2ccccc2)C1=O [DMMDPB]
Response: 129
